Test system: A549
Assay: NCI tumour cell line growth inhibition, 48 h
Calls of active or inactive are those of the source. Cut-off read from the data, not from the text of the source: active = GI50 up to about 1.1 µM and inactive = higher.
// classify into Y = active, N = inactive

| molecule | category_label |
| --- | --- |
| C/C=C\C(CC(=O)NCCc1c[nH]c2ccccc12)CC(=O)OC (stereo unspecified) | N |
| Nc1ncnc2c1ncn2C1OC(COP(=O)(O)CP(=O)(O)O)C(O)C1O (stereo unspecified) | N |

Data request: Lab log entry: CCOC(=O)/C(=N\Nc1ccc(-n2c(C)nc3ccc(Br)cc3c2=O)cc1)C(C)=O — outcome as called in the assay?
Data returned: N

Data request: Lab log entry: c1cc2c(cc1C1=NCCN1)c1cc(C3=NCCN3)ccc1n2CC1CCCCC1 — outcome as called in the assay?
Data returned: N

Data request: Lab log entry: O=c1oc2ccccc2cc1-c1cn2c(n1)sc1ccccc12 — outcome as called in the assay?
Data returned: N

Data request: Lab log entry: COC(=O)/C=C\C(C#N)(C#N)/N=C/c1ccsc1 — outcome as called in the assay?
Data returned: N
